Assay: Growth inhibition of glioblastoma cells (LN18) by the compound (300 uM) upon incubation for 72 hours using MTT assay
Type: functional, Homo sapiens
Parameters: unit not given here
Parameter: Growth inhibition. Scope: all listed entries.
// no unit, no text: just the number

[
  {
    "compound": "O=C(OCC(NC[C@H]1NC[C@H](O)[C@@H]1O)c1ccccc1)c1ccc(F)cc1 (stereo partly specified)",
    "property name": "Growth inhibition",
    "recorded measurement": 31
  },
  {
    "compound": "O=C(NCC(NC[C@H]1NC[C@H](O)[C@@H]1O)c1ccccc1)c1cccc(Br)c1 (stereo partly specified)",
    "property name": "Growth inhibition",
    "recorded measurement": 65
  },
  {
    "compound": "O=C(OCC(NC[C@H]1NC[C@H](O)[C@@H]1O)c1ccccc1)c1ccc(Br)cc1 (stereo partly specified)",
    "property name": "Growth inhibition",
    "recorded measurement": 97
  },
  {
    "compound": "OC[C@H](NC[C@H]1NC[C@H](O)[C@@H]1O)c1ccccc1",
    "property name": "Growth inhibition",
    "recorded measurement": 22
  },
  {
    "compound": "O=C(OCC(NC[C@H]1NC[C@H](O)[C@@H]1O)c1ccccc1)c1ccccc1F (stereo partly specified)",
    "property name": "Growth inhibition",
    "recorded measurement": 15
  }
]

Quick note, Growth inhibition for O[C@H]1[C@@H](O)CN[C@@H]1CN[C@@H](COCc1cccc(F)c1)c1ccccc1 landed at 76

* * *

Assay: Growth inhibition of glioblastoma cells (LN18) by the compound (200 uM) upon incubation for 24 hours using MTT assay
Format: functional, Homo sapiens
Set-up: unit: %
Use Fulfilled when the recorded Growth inhibition is no lower than 20; use Not fulfilled when it is lower.

Reference set, count: 6
[
  {
    "compound": "O=C(NCC(NC[C@H]1NC[C@H](O)[C@@H]1O)c1ccccc1)c1cccc(Br)c1 (some centres not stated)",
    "classification": "Fulfilled"
  },
  {
    "compound": "OC[C@H](NC[C@H]1NC[C@H](O)[C@@H]1O)c1ccccc1",
    "classification": "Not fulfilled"
  },
  {
    "compound": "O[C@H]1[C@@H](O)CN[C@@H]1CN[C@@H](COCc1cccc(F)c1)c1ccccc1",
    "classification": "Not fulfilled"
  },
  {
    "compound": "O=C(OCC(NC[C@H]1NC[C@H](O)[C@@H]1O)c1ccccc1)c1ccc(Br)cc1 (some centres not stated)",
    "classification": "Fulfilled"
  },
  {
    "compound": "O=C(OCC(NC[C@H]1NC[C@H](O)[C@@H]1O)c1ccccc1)c1ccc(F)cc1 (some centres not stated)",
    "classification": "Fulfilled"
  },
  {
    "compound": "OC[C@@H](NC[C@H]1NC[C@H](O)[C@@H]1O)c1ccccc1",
    "classification": "Not fulfilled"
  }
]

# evaluate next
For this compound, is measured Growth inhibition 20 or higher? O=C(OCC(NC[C@H]1NC[C@H](O)[C@@H]1O)c1ccccc1)c1ccccc1F (some centres not stated) Not fulfilled

* * *

Experiment: Growth inhibition of glioblastoma cells (LN18) by the compound (300 uM) upon incubation for 48 hours using MTT assay
Assay type: functional, Homo sapiens
Parameters: unit: %
property name: Growth inhibition
Lab note: record just the number, no unit beside it.

Completed entries (count: 5):
[
  {
    "molecule": "O=C(NCC(NC[C@H]1NC[C@H](O)[C@@H]1O)c1ccccc1)c1cccc(Br)c1 (stereo partly specified)",
    "recorded measurement": 50
  },
  {
    "molecule": "O[C@H]1[C@@H](O)CN[C@@H]1CN[C@@H](COCc1cccc(F)c1)c1ccccc1",
    "recorded measurement": 39
  },
  {
    "molecule": "O=C(OCC(NC[C@H]1NC[C@H](O)[C@@H]1O)c1ccccc1)c1ccc(Br)cc1 (stereo partly specified)",
    "recorded measurement": 95
  },
  {
    "molecule": "OC[C@H](NC[C@H]1NC[C@H](O)[C@@H]1O)c1ccccc1",
    "recorded measurement": 23
  },
  {
    "molecule": "O=C(OCC(NC[C@H]1NC[C@H](O)[C@@H]1O)c1ccccc1)c1ccccc1F (stereo partly specified)",
    "recorded measurement": 8
  }
]

Kindly consider the entry below.
GET /value?item= O=C(OCC(NC[C@H]1NC[C@H](O)[C@@H]1O)c1ccccc1)c1ccc(F)cc1 (stereo partly specified) &field=Growth inhibition returns 24

* * *

Test: Growth inhibition of glioblastoma cells (LNZ 308 cell) by the compound (200 uM) upon incubation for 48 hours using MTT assay
Type: functional, Homo sapiens
Set-up: unit: %
Please enter Satisfied where Growth inhibition is greater than or equal to 20, and Not satisfied where it is lower.

// known answers, use as guide
[
  {
    "compound": "O=C(OCC(NC[C@H]1NC[C@H](O)[C@@H]1O)c1ccccc1)c1ccc(F)cc1 (stereo partly specified)",
    "classification": "Not satisfied"
  },
  {
    "compound": "O[C@H]1[C@@H](O)CN[C@@H]1CN[C@@H](COCc1cccc(F)c1)c1ccccc1",
    "classification": "Satisfied"
  },
  {
    "compound": "O=C(OCC(NC[C@H]1NC[C@H](O)[C@@H]1O)c1ccccc1)c1ccc(Br)cc1 (stereo partly specified)",
    "classification": "Satisfied"
  }
]

Growth inhibition >= 20 for O=C(OCC(NC[C@H]1NC[C@H](O)[C@@H]1O)c1ccccc1)c1ccccc1F (stereo partly specified) ? Not satisfied

Reported Growth inhibition reaches at least 20 for O=C(OCC(NC[C@H]1NC[C@H](O)[C@@H]1O)c1ccccc1)c1cccc(Br)c1 (stereo partly specified) ? Satisfied

Dear colleague, could you confirm whether O=C(NCC(NC[C@H]1NC[C@H](O)[C@@H]1O)c1ccccc1)c1cccc(Br)c1 (stereo partly specified) has Growth inhibition at or above 20? Satisfied
